# IC50 listing for each entry below
molecular target: yeast HSP90 (Saccharomyces cerevisiae); experiment: Hsp90 ATPase assay (malachite green); type: biochemical

CCNC(=O)c1noc(-c2cc(C(C)C)c(O)cc2O)c1-c1noc(CN(C)C)n1 [Compound I-93] : 500 to 1000 nM
CCNC(=O)c1noc(-c2cc(C(C)C)c(O)cc2O)c1-c1noc(C(Cl)(Cl)Cl)n1 [Compound I-70] : 500 to 1000 nM

Please give the measured IC50 for this compound: CC(C)c1cc(-c2onc(Cn3ccnn3)c2-c2ccsc2)c(O)cc1O [Compound I-5]
> 1000 nM

// query: CCNC(=O)c1noc(-c2cc(C(C)C)c(O)cc2O)c1-c1noc(CN2CCOCC2)n1 [Compound I-92]
500 to 1000 nM

* * *

# IC50 listing for each entry below
Target: yeast HSP90 (Saccharomyces cerevisiae)
Assay: Hsp90 ATPase assay (malachite green)
Assay type: biochemical
Procedure: For present invention, the ATPase activity of yeast HSP90 was measured using malachite green assay. Formula I compounds for primary antitumoral activity were treated in human colorectal cancer cells (HCT116) showing increased expression levels of HSP90 client protein and cotoxicity IC50 values was measured as a result.

Example compounds with recorded IC50:
CC(C)c1cc(-c2onc(CO)c2-c2ccsc2)c(O)cc1O : > 1000 nM
CCNC(=O)c1noc(-c2cc(C(C)C)c(O)cc2O)c1-c1cc(/C=N/OC)no1 : < 500 nM
CCNC(=O)c1noc(-c2cc(C(C)C)c(O)cc2O)c1-c1cc(C(OC)OC)no1 : < 500 nM

Please give the measured IC50 for this compound: CCNC(=O)c1noc(-c2cc(C(C)C)c(O)cc2O)c1-c1noc(-c2ccc(OC)cc2)n1
500 to 1000 nM

// query: CCNC(=O)c1noc(-c2cc(C(C)C)c(O)cc2O)c1-c1cc(COS(C)(=O)=O)no1
< 500 nM

* * *

# IC50 listing for each entry below
Target: yeast HSP90 (Saccharomyces cerevisiae, UniProt P02829)
Sequence (P02829 whole entry): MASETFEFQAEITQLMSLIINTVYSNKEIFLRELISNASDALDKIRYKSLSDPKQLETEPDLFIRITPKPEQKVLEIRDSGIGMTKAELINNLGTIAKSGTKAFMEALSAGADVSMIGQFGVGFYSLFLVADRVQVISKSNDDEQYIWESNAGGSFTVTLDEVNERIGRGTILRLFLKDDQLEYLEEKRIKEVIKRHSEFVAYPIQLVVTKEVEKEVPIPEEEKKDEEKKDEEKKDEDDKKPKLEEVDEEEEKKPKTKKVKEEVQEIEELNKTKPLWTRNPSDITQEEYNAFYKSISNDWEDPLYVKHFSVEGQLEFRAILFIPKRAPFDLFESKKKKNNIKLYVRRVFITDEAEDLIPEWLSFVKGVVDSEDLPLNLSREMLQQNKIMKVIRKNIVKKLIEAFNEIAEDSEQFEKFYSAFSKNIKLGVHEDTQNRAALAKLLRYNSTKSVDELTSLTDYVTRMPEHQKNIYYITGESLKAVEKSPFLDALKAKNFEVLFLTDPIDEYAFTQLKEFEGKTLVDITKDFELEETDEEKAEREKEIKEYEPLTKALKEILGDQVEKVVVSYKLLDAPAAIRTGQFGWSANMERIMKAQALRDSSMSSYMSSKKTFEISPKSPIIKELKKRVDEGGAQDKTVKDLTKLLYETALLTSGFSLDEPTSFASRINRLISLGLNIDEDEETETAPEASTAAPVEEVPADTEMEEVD
Test: Hsp90 ATPase assay (malachite green)
Assay type: biochemical
Method: For present invention, the ATPase activity of yeast HSP90 was measured using malachite green assay. Formula I compounds for primary antitumoral activity were treated in human colorectal cancer cells (HCT116) showing increased expression levels of HSP90 client protein and cotoxicity IC50 values was measured as a result.

Example compounds with recorded IC50:
CCNC(=O)c1noc(-c2cc(C(C)C)c(O)cc2O)c1-c1cc(-c2ccsc2)no1 : 500 to 1000 nM
CCNC(=O)c1noc(-c2cc(C(C)C)c(O)cc2O)c1-c1noc(C(F)(F)F)n1 : 500 to 1000 nM
CCNC(=O)c1noc(-c2cc(C(C)C)c(O)cc2O)c1-c1noc(N(C)C)n1 : < 500 nM

Moving on to another compound below.
Please give the measured IC50 for this compound: CCNC(=O)c1cc(-c2c(C(=O)NCC)n[nH]c2-c2cc(C(C)C)c(O)cc2O)on1
> 1000 nM

* * *

target: yeast HSP90 (Saccharomyces cerevisiae); assay: Hsp90 ATPase assay (malachite green); format: biochemical
# IC50 listing for each entry below

CCNC(=O)c1noc(-c2cc(C(C)C)c(O)cc2O)c1-c1noc(N(CC)CC)n1 : < 500 nM
CCNC(=O)c1noc(-c2cc(C(C)C)c(O)cc2O)c1-c1cc(C#N)no1 : 500 to 1000 nM
CCNC(=O)c1noc(-c2cc(C(C)C)c(O)cc2O)c1-c1noc(S)n1 : 500 to 1000 nM
CCNC(=O)c1noc(-c2cc(C(C)C)c(O)cc2O)c1-c1cc(CF)no1 : < 500 nM
CCNC(=O)c1noc(-c2cc(C(C)C)c(O)cc2O)c1-c1noc(N2CCCCC2)n1 : < 500 nM
CCNC(=O)c1noc(-c2cc(C(C)C)c(O)cc2O)c1-c1noc(C(C)C)n1 : < 500 nM

Please give the measured IC50 for this molecule: CCNC(=O)c1noc(-c2cc(C(C)C)c(O)cc2O)c1-c1cc(C(=O)N2CCSCC2)no1
500 to 1000 nM

// query: CCNC(=O)c1noc(-c2cc(C(C)C)c(O)cc2O)c1-c1cc(COCC(N)=O)no1
< 500 nM

// query: CCNC(=O)c1noc(-c2cc(C(C)C)c(O)cc2O)c1-c1noc(O)n1
> 1000 nM

// query: CCNC(=O)c1noc(-c2cc(C(C)C)c(O)cc2O)c1-c1cc(C(=O)O)no1
> 1000 nM
